Emax at 10 µM reference
Molecular target: GST-hLGK1 (human liver type GK) (Homo sapiens, UniProt P35557)
Construct: made in house; host or cells: Escherichia coli BL21 (pGEX6P-2/hLGK1)
Sequence (P35557 1-464 isoform P35557-3): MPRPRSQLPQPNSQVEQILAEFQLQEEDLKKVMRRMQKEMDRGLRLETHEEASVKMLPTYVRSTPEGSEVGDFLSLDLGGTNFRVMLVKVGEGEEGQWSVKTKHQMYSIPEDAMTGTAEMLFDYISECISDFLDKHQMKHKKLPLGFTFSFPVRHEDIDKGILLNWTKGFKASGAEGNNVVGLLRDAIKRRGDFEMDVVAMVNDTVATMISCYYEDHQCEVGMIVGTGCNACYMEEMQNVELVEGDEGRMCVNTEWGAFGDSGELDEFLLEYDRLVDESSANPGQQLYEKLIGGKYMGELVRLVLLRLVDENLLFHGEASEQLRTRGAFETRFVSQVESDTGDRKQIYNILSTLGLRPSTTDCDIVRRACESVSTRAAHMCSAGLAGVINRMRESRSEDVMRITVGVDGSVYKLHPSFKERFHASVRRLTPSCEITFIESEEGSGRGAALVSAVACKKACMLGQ
Assay: Determination of GK activity value (fluorescence assay)
Assay type: biochemical
Details: test compound 10 μmol/L, 5 mmol/L D-glucose, reaction rate as percentage of control without compound

>  <SUBSTANCE SMILES>
Cn1ccnc1Sc1ccc2[nH]nc(Nc3nccs3)c2c1

>  <Emax at 10 µM [%]>
218

$$$$
>  <SUBSTANCE SMILES>
Cn1ccc(Nc2n[nH]c3ccc(-c4ncccc4Cl)cc23)n1

>  <Emax at 10 µM [%]>
175

$$$$
>  <SUBSTANCE SMILES>
Cn1ccc(Nc2n[nH]c3c(Oc4ccc(S(C)(=O)=O)cc4)cc(-c4ncccc4Cl)cc23)n1

>  <Emax at 10 µM [%]>
140

$$$$
>  <SUBSTANCE SMILES>
CC(C)Cc1cc(OCCc2ccsc2)c2[nH]nc(Nc3nccs3)c2c1

>  <Emax at 10 µM [%]>
194

$$$$
>  <SUBSTANCE SMILES>
CC(C)Cc1cc(OCC(=O)N(C)C)c2[nH]nc(Nc3nccs3)c2c1

>  <Emax at 10 µM [%]>
111

$$$$
